- method notes: Quantitative High-Throughput drug screen in 47 multiple myeloma cell lines against the NCATS MIPE library collection: MOLP8_DSMZ cell viability assay (AID 1918977); note: nearly all actives have a fitted effect of over 45% in size; note: potency is the fitted concentration of half-maximal effect
- recorded conditions: MOLP8 myeloma viability, CellTiter-Glo ATP luminescence, 48 h; series mostly up to 45.8 µM
- Excerpt: PI: Beverly A. Mock Ph.D. Laboratory of Cancer Biology and Genetics, Center for Cancer Research, National Cancer Institute, National Institute of Health, Bethesda, Maryland […] 5; Detector; 425V; Luminescence; Viewlux PerkinElmer. […] 1. […] Briefly, the corresponding myeloma cell lines were screened in 1,536-well plates with 500 cells, 5-uL per well for inhibition of cell viability (assessed by measuring ATP levels with CellTiterGlo). […]
Inconclusive results are not listed. The source made the active and inactive calls. Calls come from the whole dose curve; as a rule, active = well fitted cell-killing curve with a large enough effect; inconclusive = small, poorly fitted or top-dose-only effect, or effect the other way; inactive = no such curve, though single readings can be large or run the other way.
value kind: Potency

Here are 5 molecules together with their reported answers.
[[record]]
molecule = "COc1cc(C(C)C)c(Oc2cnc(NC(CO)CO)nc2N)cc1I"
result = "inactive"

[[record]]
molecule = "COc1ccnc2[nH]cc(C(=O)C(=O)N3CCN(C(=O)c4ccccc4)C[C@@H]3C)c12"
result = "inactive"

[[record]]
molecule = "Cc1ccccc1C(=O)Nc1ccc(C(=O)N2CCCC(O)c3cc(Cl)ccc32)c(C)c1 (centres undefined)"
result = "inactive"

[[record]]
molecule = "CC(C)N1[N]C(=C2C=c3cc(O)ccc3=N2)c2c(N)ncnc21"
result = "83.3 nM (active)"

[[record]]
molecule = "CC(C)NC[C@@H](C(=O)N1CCN(c2ncnc3c2[C@H](C)C[C@H]3O)CC1)c1ccc(Cl)cc1"
result = "296 nM (active)"


Just so you know, measured Potency for `CC(=O)OC[C@@H]1O[C@@H](n2ccc(=O)[nH]c2=O)[C@H](OC(C)=O)[C@H]1OC(C)=O` came out at inactive

Looking up `CCC(C=C[C@@H]1OC(=O)C=C[C@H]1C)=C[C@H](C)CC=CC(C)=C[C@@H](C)C(=O)[C@@H](C)[C@H](O)[C@@H](C)CC(C)=CC(=O)O` , I found its Potency recorded as 19.6 nM (active)

Data point: `COc1cc([C@@H]2c3cc4c(cc3[C@H](O)[C@H]3COC(=O)[C@@H]23)OCO4)cc(OC)c1OC` ; Potency = 469 nM (active)

The molecule identified as `CCOC(=O)[C@@H](N)Cc1ccc(-c2cc(O[C@H](c3ccc(Cl)cc3-n3ccc(C)n3)C(F)(F)F)nc(N)n2)cc1` registered its Potency at 11800 nM (active)

----------
- method notes: qHTS Screen of the MIPE 4.0 Collection Against Ewings Sarcoma (TC32) (AID 1259256); note: nearly all actives have a fitted effect of over 45% in size
- recorded conditions: TC32 Ewing sarcoma viability, CellTiter-Glo, 48 h; series mostly up to 45.8 µM
Records with an inconclusive call do not appear. The source made the active and inactive calls. Calls come from the whole dose curve; as a rule, active = well fitted inhibition curve with a large enough effect; inconclusive = small, poorly fitted or top-dose-only effect; inactive = no such curve, though single readings can be large or run the other way.
Response enum: active, inactive

Examples from the recorded data:
[[record]]
compound = "Cc1nc(NC(=O)N2CCC[C@@H]2C(N)=O)sc1-c1ccnc(C(C)(C)C(F)(F)F)c1"
qualitative_label = "active"

[[record]]
compound = "CN(C)CC[C@H](c1ccc(Cl)cc1)c1ccccn1"
qualitative_label = "inactive"

[[record]]
compound = "O=C(O)[C@H](CC(=O)N1C[C@@H]2CCCC[C@H]2C1)Cc1ccccc1"
qualitative_label = "inactive"

[[record]]
compound = "CC(=O)NCC(=O)N1[C@H]2CC[C@H]1c1cc(Nc3ncc(C(F)(F)F)c(NC4CCC4)n3)ccc12"
qualitative_label = "active"

[[record]]
compound = "c1cncc(CN2CCC(n3ncc4c(N5CCOCC5)nc(-c5ccc6[nH]ccc6c5)nc43)CC2)c1"
qualitative_label = "active"

[[record]]
compound = "C[C@]12CCC(=O)C=C1[C@@H]1CC1[C@H]1[C@H]3[C@@H]4C[C@H]4[C@@]4(CCC(=O)O4)[C@@]3(C)CC[C@H]12 (some centres not stated)"
qualitative_label = "inactive"


Let us examine a further case.
## Task For C[C@H](CCC(=O)O)[C@H]1CCC2C3C[C@H](O)[C@@H]4C[C@H](O)CC[C@]4(C)C3CC[C@@]21C (some centres not stated) , what call appears in the results of this test?
## Result inactive

----------
- method notes: qHTS of pediatric cancer cell lines to identify multiple opportunities for drug repurposing: Primary screen for TC32 cells (AID 1347089); note: nearly all actives have a fitted effect of over 60% in size
- recorded conditions: TC32 Ewing sarcoma viability, CellTiter-Glo luminescence, 48 h; series mostly up to 45.8 µM
- Description: Drug repurposing or repositioning has been offered as a strategy for drug development in oncology programs. […] [1] Shen, M et al. Quantitative high-throughput phenotypic screening of pediatric cancer cell lines identifies multiple opportunities for drug repurposing. […] Cells were assayed in growth media at a density of 500-1,000 cells/well. […] After a 15min incubation at room temperature, samples were analyzed for luminescence intensity using a ViewLux High-throughput CCD imager equipped with clear filters.
Records with an inconclusive call do not appear. The source made the active and inactive calls. The call rests on the fitted dose curve; in most records, active means well fitted cell-killing curve with a large enough effect; inconclusive means small, poorly fitted or top-dose-only effect; inactive means flat fitted curve, though single readings scatter.
Pick from active, inactive when you respond.

[[record]]
molecule = "CCOC(=O)[C@@H](N)Cc1ccc(-c2cc(O[C@H](c3ccc(Cl)cc3-n3ccc(C)n3)C(F)(F)F)nc(N)n2)cc1"
qualitative_label = "inactive"

[[record]]
molecule = "CN[C@@H]1C[C@H]2O[C@@](C)([C@H]1OC)n1c3ccccc3c3c4c(c5c6ccccc6n2c5c31)C(=O)N[C@H]4O"
qualitative_label = "active"

[[record]]
molecule = "COc1cc(C)c(Sc2cnc(NC(=O)c3ccc(CNC(C)C(C)(C)C)cc3)s2)cc1C(=O)N1CCN(C(C)=O)CC1 (stereo not given)"
qualitative_label = "active"

[[record]]
molecule = "C=CC[C@@H]1C=C(C)C[C@H](C)C[C@H](OC)[C@H]2O[C@@](O)(C(=O)C(=O)N3CCCC[C@H]3C(=O)O[C@H](C(C)=C[C@@H]3CC[C@H](O)[C@H](OC)C3)[C@@H](C)[C@@H](O)CC1=O)[C@@H](C)C[C@@H]2OC"
qualitative_label = "inactive"

[[record]]
molecule = "Nc1ccc(C(=O)Nc2cccc(-c3nc(N4CCOCC4)c4oc5ncccc5c4n3)c2)cn1"
qualitative_label = "inactive"

[[record]]
molecule = "c1cc(CN2CCCNCCNCCCNCC2)ccc1CN1CCCNCCNCCCNCC1"
qualitative_label = "inactive"

[[record]]
molecule = "COc1cccc2c1C(=O)c1c(O)c3c(c(O)c1C2=O)C[C@@](O)(C(=O)CO)C[C@@H]3O[C@H]1C[C@H](N)[C@H](OC2CCCCO2)[C@H](C)O1 (stereo not given in full)"
qualitative_label = "active"

[[record]]
molecule = "COc1cc([C@@H]2c3cc4c(cc3[C@H](O)[C@H]3COC(=O)[C@@H]23)OCO4)cc(OC)c1OC"
qualitative_label = "active"

[[record]]
molecule = "CC(C)Oc1ccc(C(=O)N[C@H](CNC(=O)CN(C)C)Cc2ccc(-c3cn4cccc([C@H](C)O)c4n3)cc2)cc1Cl"
qualitative_label = "active"

[[record]]
molecule = "NC[C@H]1O[C@H](O[C@H]2[C@@H](O)[C@@H](O[C@H]3O[C@H](CO)[C@@H](O)[C@H](N)[C@@H]3O)[C@H](N)C[C@@H]2N)[C@H](N)C[C@H]1O"
qualitative_label = "inactive"


Attention now shifts to the item below.
## Task Tell me the assay call for `CCN(CC)Cc1ccc2cc(COC(=O)Nc3ccc(C(=O)NO)cc3)ccc2c1` please.
## Result active

----------
- method notes: qHTS profiling of the MIPE4 collection as inhibitors of Plasmodium falciparum (HB3) proliferation (AID 743347);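 note: plate controls were DMSO vehicle wells for no effect and artemisinin wells for full effect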
- recorded conditions: P. falciparum HB3 in erythrocytes, SYBR Green DNA, 72 h; at 28.5 µM (top of the series) unless noted
value kind: growth, % of control (%)
Expressed in %, but write only the number.

Below, each entry is followed by its recorded growth, % of control result.
[[record]]
compound = "CC(=O)O[C@@]12CO[C@H]1C[C@H](O)[C@@]1(C)C(=O)[C@H](O)C3=C(C)[C@@H](OC(=O)C(O)[C@@H](NC(=O)OC(C)(C)C)c4ccccc4)C[C@@](O)([C@@H](OC(=O)c4ccccc4)[C@@H]21)C3(C)C (some centres undefined)"
reading_unit = "%"
result_number = 4.16

[[record]]
compound = "O=c1[nH]c(=O)n([C@H]2C[C@@H](O)[C@@H](CO)O2)cc1F"
reading_unit = "%"
result_number = 138

[[record]]
compound = "Cn1cnc(=N)c2[nH]cnc21"
reading_unit = "%"
result_number = 3.51

[[record]]
compound = "Cc1ccccc1C(=O)Nc1ccc(C(=O)N2CCCC(O)c3cc(Cl)ccc32)c(C)c1 (centres undefined)"
reading_unit = "%"
result_number = 24.6

[[record]]
compound = "COC(=O)C1C2CC3c4[nH]c5cc(OC)ccc5c4CCN3CC2CC(OC(=O)c2cc(OC)c(OC)c(OC)c2)C1OC (centres undefined)"
reading_unit = "%"
result_number = 9.05

[[record]]
compound = "COC(=O)C=CC(=O)OC"
reading_unit = "%"
result_number = 96.5


Reported growth, % of control for `Cc1cc(C(=O)NOCCO)c(Nc2ccc(I)cc2F)n(C)c1=O` was 66.5

The reported value for `CC(C)(O)CC[C@@H](O)[C@](C)(O)[C@H]1CC[C@@]2(O)C3=CC(=O)[C@@H]4C[C@@H](O)[C@@H](O)C[C@]4(C)[C@@H]3CC[C@]12C` in terms of growth, % of control is 674
